target: sLRP1-CIV (cluster IV of LRP1 fused to the constant region of a human IgG1) (human)
assay notes: SPR (Biacore X), sLRP1-CIV immobilised on CM5 chip, peptide at 20 µM; RU at 270 s
measured endpoint: RU (at 270 s) (RU)

>>> readout_value("CIEVYWTRPKWKVNWFICKKK (modifications not checked) [beta hairpin peptide PHB4]")
3600
>>> readout_value("FWNWKWEKNKWTWNVEGGKKK (modifications not checked) [beta hairpin peptide PHB5]")
175
>>> readout_value("CVNWTEPDKKVNWCKKK (modifications not checked) [beta hairpin peptide PHB1]")
117
>>> readout_value("CIEVYVTINGKKYNWFICKKK (modifications not checked) [beta hairpin peptide PHB9]")
1080
>>> readout_value("CVYWTRPKWKVNWCKKK (modifications not checked) [beta hairpin peptide PHB2]")
861

Values from patent US20170152290A1
